Measured values drawn from the supplement of paper PMC5844555 for this set.

# System: ZEB2
# test: 3' UTR reporter interaction score (median-centred robust z-score of log2 firefly/Renilla activity); higher = less repression of the 3' UTR reporter
# recorded conditions: HEK293T; 48 h
measurement name: 3' UTR reporter interaction score
Give bare numbers.

Sample records with 3' UTR reporter interaction score:
UCAGUGCAUGACAGAACUUGGG
1.1
ACUCAAAAUGGGGGCGCUUUCC
0.347
ACUUACAGACAAGAGCCUUGCUC
-0.165
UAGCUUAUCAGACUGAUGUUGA
-0.0716
UUCACCACCUUCUCCACCCAGC
1.21

Would you mind giving 3' UTR reporter interaction score for every sequence in the list below?
1. UAGCAGCACAUCAUGGUUUACA
2. GAUUGCUCUGCGUGCGGAAUCGAC
3. CAUCUUACCGGACAGUGCUGGA
4. UCACAGUGAACCGGUCUCUUUU

[reply]
2.82
-0.205
-2.11
-4.74

* * *

# System: TP53
# test: 3' UTR reporter interaction score (median-centred robust z-score of log2 firefly/Renilla activity); higher = less repression of the 3' UTR reporter
# recorded conditions: HEK293T; 48 h
measurement name: 3' UTR reporter interaction score
Numbers only.

AGGGGGAAAGUUCUAUAGUCCU
-0.601
UCUCACACAGAAAUCGCACCCGUC
-0.669
UUUCAAGCCAGGGGGCGUUUUUC
1.02
AAAGUGCUUCUCUUUGGUGGGUU
0.499
UCUACAGUGCACGUGUCU
0.119

I'm hoping you can list 3' UTR reporter interaction score for every sequence here, please.
1. UGGUCUAGGAUUGUUGGAGGAG
2. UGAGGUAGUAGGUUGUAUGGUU
3. CUUUCAGUCGGAUGUUUACAGC
4. AUGGAGAUAGAUAUAGAAAU

[reply]
1: 0.772; 2: -0.643; 3: 0.358; 4: 0.174

* * *

# Test system: RB1
# test: 3' UTR reporter interaction score (median-centred robust z-score of log2 firefly/Renilla activity); higher = less repression of the 3' UTR reporter
# recorded conditions: HEK293T; 48 h
For each entry below, report its 3' UTR reporter interaction score value.
One number for each entry.

Below, each entry is followed by its recorded 3' UTR reporter interaction score result.
CACCCGUAGAACCGACCUUGCG
-0.00577
UCAGGCUCAGUCCCCUCCCGAU
0.0824
UCCGUCUCAGUUACUUUAUAGCC
0.307
CCCAGUGUUUAGACUAUCUGUUC
-0.794
AAAGUGCCUCCUUUUAGAGUGU
-0.21

Batch: 3' UTR reporter interaction score for all items listed.
1. ACAUAGAGGAAAUUCCACGUUU
2. AGUAUGUUCUUCCAGGACAGAAC
3. UGUUUGCAGAGGAAACUGAGAC
4. AACCCGUAGAUCCGAACUUGUG
5. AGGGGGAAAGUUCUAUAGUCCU
6. UAAGUGCUUCCAUGUUUCAGUGG

[reply]
0.821
0.243
-0.175
0.915
0.755
0.571

For each of the items listed, what is its 3' UTR reporter interaction score?
1. UGCUUCCUUUCAGAGGGU
2. GUGCAUUGUAGUUGCAUUG
3. AUUCAUUUGGUAUAAACCGCGAU
4. UUUGUUCGUUCGGCUCGCGUGA
5. CUGGAUGGCUCCUCCAUGUCU
6. GCGUGCGCCGGCCGGCCGCC
7. AGCUGGUGUUGUGAAUC

[reply]
-0.583
-0.339
0.747
-0.809
-2.12
-0.23
-0.243

Hi! Can you tell me 3' UTR reporter interaction score for each of these sequences?
1. AACAUUCAUUGUUGUCGGUGGGUU
2. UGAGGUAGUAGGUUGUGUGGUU
3. GUUCUCCCAACGUAAGCCCAGC
4. UGUCUUACUCCCUCAGGCACAU
5. UUUGUGACCUGGUCCACUAACC
6. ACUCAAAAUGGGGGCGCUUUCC

[reply]
1: 0.277; 2: 1.01e-16; 3: -0.277; 4: 0.999; 5: 0.728; 6: 0.824

Below are some sequences; for each one, tell me its 3' UTR reporter interaction score.
1. UAUGGCACUGGUAGAAUUCACUG
2. CUGACCUAUGAAUUGACAGCC
3. AAUAAUACAUGGUUGAUCUUU
4. UGAUUGUCCAAACGCAAUUCU
5. GGCGGAGGGAAGUAGGUCCGUUGGU
6. AGCUACAUCUGGCUACUGGGUCUC
7. GAGCCAGUUGGACAGGAGC
8. AUAAUACAUGGUUAACCUCUUU

[reply]
-0.628
-2.94
-0.0974
0.331
0.267
-3.28
-0.775
-0.631

[ask] What does the record list as 3' UTR reporter interaction score for GCGAGGACCCCUCGGGGUCUGAC ?
[reply] 0.707

* * *

# Tested on: BRCA2
# test: 3' UTR reporter interaction score (median-centred robust z-score of log2 firefly/Renilla activity); higher = less repression of the 3' UTR reporter
# recorded conditions: HEK293T; 48 h
Each entry gets F if its 3' UTR reporter interaction score stays under -0.4, and T if its 3' UTR reporter interaction score is -0.4 or above.

Example results:
GCACAUUACACGGUCGACCUCU
T
UCCAGCAUCAGUGAUUUUGUUGA
T
UCUUGUGUUCUCUAGAUCAGU
T
AGUGACAUCACAUAUACGGCAGC
F
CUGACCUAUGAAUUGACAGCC
F
UUGGUCCCCUUCAACCAGCUA
T
AUCAUAGAGGAAAAUCCAUGUU
T
ACAAAGUGCUUCCCUUUAGAGU
T

[ask] Hello, I need to know if AUCACAUUGCCAGGGAUUACC has measured 3' UTR reporter interaction score not below -0.4. Thanks!
[reply] F

[ask] Moving on to the next sequence: CAAAGUGCUCAUAGUGCAGGUAG
[reply] T

[ask] Another sequence to check: AGGCACGGUGUCAGCAGGC
[reply] T

[ask] How about this sequence: UGUGCAAAUCCAUGCAAAACUGA
[reply] F

[ask] Try UAGCACCAUUUGAAAUCGGU next.
[reply] T

[ask] And then AAAACGGUGAGAUUUUGUUUU , what is it?
[reply] F

[ask] Now this one: AAAAUGGUUCCCUUUAGAGUGUU
[reply] F

* * *

Assignment: determine reported 3' UTR reporter interaction score for the given sequences.
# System: TP53
# test: 3' UTR reporter interaction score (median-centred robust z-score of log2 firefly/Renilla activity); higher = less repression of the 3' UTR reporter
# recorded conditions: HEK293T; 48 h
Give bare numbers.

Below are 3 sequences. Give each one its 3' UTR reporter interaction score.
1. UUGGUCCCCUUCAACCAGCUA
2. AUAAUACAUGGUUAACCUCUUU
3. UUGCAUAGUCACAAAAGUGA

[reply]
1. -0.692
2. -0.592
3. 0.904

For each of the sequences below, note its 3' UTR reporter interaction score.
1. AGGGCCCCCCCUCAAUCCUGU
2. UGUAGUGUUUCCUACUUUAUGGA

[reply]
1. -0.172
2. -0.138

Give one value of 3' UTR reporter interaction score per listed sequence.
1. AGAUCAGAAGGUGAUUGUGGCU
2. CAAAGAGGAAGGUCCCAUUAC
3. AGGCAGUGUAGUUAGCUGAUUGC

[reply]
1. 0.622
2. -1.21
3. 0.285

* * *

# Tested on: PHOX2B
# test: 3' UTR reporter interaction score (median-centred robust z-score of log2 firefly/Renilla activity); higher = less repression of the 3' UTR reporter
# recorded conditions: HEK293T; 48 h
Exercise: for every item that follows, state its recorded 3' UTR reporter interaction score.
Numbers only.

Consider the reported 3' UTR reporter interaction score for these sequences:
UCUCCCAACCCUUGUACCAGUG
-0.32
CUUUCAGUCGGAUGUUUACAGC
-0.851
AGCUCGGUCUGAGGCCCCUCAG
-1.22
UGUAAACAUCCUACACUCUCAGC
0.58
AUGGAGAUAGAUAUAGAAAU
0.37
CUGGCCCUCUCUGCCCUUCCGU
-0.839

Can you give me 3' UTR reporter interaction score for all of these, one by one?
1. CUUUUUGCGGUCUGGGCUUGC
2. GUCAUACACGGCUCUCCUCUCU
3. GCCUGCUGGGGUGGAACCUGG
4. CAGCAGCACACUGUGGUUUGU
5. UAGCAGCGGGAACAGUUCUGCAG
6. AUUCUGCAUUUUUAGCAAGU
7. CUCCAGAGGGAUGCACUUUCU
8. UAUUGCACUUGUCCCGGCCUG

[reply]
-0.0143
-0.585
0.0382
0.464
-0.446
-0.262
1.08
0.517
